IFNγ secretion, CD8 T cells, at 0.001 µM values for the binders below.
Test Target: T1, IL10Rα/IL2Rγ receptor (human) (UniProt Q13651)
T1 sequence (looked up) 1: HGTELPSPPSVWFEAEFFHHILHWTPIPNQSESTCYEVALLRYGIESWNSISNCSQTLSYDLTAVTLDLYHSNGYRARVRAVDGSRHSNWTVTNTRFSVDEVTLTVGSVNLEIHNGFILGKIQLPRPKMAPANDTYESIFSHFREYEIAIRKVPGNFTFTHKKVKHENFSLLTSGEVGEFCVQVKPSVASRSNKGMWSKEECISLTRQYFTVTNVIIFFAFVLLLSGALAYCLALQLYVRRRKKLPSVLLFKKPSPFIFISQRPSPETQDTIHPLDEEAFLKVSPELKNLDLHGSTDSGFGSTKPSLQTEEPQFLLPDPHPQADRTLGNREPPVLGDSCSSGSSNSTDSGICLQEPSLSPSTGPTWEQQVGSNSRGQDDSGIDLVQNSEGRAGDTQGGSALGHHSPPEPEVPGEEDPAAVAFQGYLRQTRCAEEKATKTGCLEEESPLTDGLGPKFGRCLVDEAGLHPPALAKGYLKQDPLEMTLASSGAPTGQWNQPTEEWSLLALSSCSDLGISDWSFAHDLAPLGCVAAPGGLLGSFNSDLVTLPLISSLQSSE
T1 sequence (looked up) 2: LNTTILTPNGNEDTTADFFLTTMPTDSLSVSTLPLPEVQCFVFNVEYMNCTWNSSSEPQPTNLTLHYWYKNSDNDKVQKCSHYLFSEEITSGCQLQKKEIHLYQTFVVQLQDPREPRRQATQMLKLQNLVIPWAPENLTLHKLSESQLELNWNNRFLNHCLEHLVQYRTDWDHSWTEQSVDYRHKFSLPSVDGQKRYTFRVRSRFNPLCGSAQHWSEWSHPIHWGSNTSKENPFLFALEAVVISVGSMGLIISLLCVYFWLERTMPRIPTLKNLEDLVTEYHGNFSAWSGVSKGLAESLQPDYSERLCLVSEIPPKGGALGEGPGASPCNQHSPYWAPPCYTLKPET
Test: cell-based or functional assay
Property Label: IFNγ secretion, CD8 T cells, at 0.001 µM (pg/mL)

binder="hIL10Ra_VHH14 - hIL2Rg_VHH19, linker GGGS, tag Fc (bispecific antibody, not shown: a dimerising Fc or GST) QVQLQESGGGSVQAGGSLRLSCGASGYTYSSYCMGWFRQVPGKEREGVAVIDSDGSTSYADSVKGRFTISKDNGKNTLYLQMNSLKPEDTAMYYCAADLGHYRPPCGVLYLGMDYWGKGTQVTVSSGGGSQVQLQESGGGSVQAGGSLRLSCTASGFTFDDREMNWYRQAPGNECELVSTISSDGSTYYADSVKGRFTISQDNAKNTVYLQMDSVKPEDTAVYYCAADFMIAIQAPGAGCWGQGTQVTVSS" quantity_unit=pg/mL result=113000
binder="hIL10Ra_VHH14 - hIL2Rg_VHH19, linker GGGSGGGS, tag his (bispecific antibody, not shown: small tags and cut ends) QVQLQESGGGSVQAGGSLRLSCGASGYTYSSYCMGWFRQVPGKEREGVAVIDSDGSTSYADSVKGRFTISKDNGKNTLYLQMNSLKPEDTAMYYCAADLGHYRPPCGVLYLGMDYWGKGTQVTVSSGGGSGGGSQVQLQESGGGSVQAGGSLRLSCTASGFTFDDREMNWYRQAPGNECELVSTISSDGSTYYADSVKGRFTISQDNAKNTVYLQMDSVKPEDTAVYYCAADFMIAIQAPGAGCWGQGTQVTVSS" quantity_unit=pg/mL result=108000
binder="hIL10Ra_VHH14 - hIL2Rg_VHH19, No linker, tag his (bispecific antibody, not shown: small tags and cut ends) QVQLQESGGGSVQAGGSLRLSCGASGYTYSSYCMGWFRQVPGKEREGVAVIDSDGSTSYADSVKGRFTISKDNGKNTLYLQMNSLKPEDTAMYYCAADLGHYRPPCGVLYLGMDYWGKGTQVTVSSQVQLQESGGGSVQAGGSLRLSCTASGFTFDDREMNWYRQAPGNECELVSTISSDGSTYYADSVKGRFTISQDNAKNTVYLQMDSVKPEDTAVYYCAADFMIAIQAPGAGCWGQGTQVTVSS" quantity_unit=pg/mL result=104000
binder="hIL10Ra_VHH14 - hIL2Rg_VHH19, linker GGGS, tag his (bispecific antibody, not shown: small tags and cut ends) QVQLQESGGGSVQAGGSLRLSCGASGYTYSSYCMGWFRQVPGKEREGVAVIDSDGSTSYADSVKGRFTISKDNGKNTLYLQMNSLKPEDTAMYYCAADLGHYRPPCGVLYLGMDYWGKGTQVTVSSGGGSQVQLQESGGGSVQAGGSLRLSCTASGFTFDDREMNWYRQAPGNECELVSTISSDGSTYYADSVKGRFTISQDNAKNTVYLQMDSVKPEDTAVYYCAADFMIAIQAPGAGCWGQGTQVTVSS" quantity_unit=pg/mL result=99600
